Can you tell me Ki for the items I'm about to list?
# experimentalSystem: Cyclin-dependent kinase 2/cyclin E1 (Homo sapiens)
# experimentSummary: Inhibition of recombinant full length wild-type CDK2/Cyclin E1 (unknown origin) expressed in baculovirus expression system assessed as […] using 5-FAM-QSPKKG-CONH2 peptide as substrate preincubated with enzyme for 15 mins followed by further incubation with ATP for 45 mins by fluorescence-based microfluidic mobility shift assay
Use nM as the unit, but write only the number.

Exercise: Look up Ki for this compound: Cc1ncc(CC(=O)Nc2cc([C@H]3CC[C@@H](OC(=O)N4C[C@@H](C#N)[C@@H]4C)C3)[nH]n2)s1 (single isomer, unassigned)
Solution: 0.15

Exercise: Next record, please: CCC(CO)CNC(=O)O[C@@H]1CC[C@H](c2cc(NC(=O)Cc3ccc(OC)nc3)n[nH]2)C1 (single isomer, unassigned)
Solution: 0.77

Exercise: Next record, please: COc1ccc(CC(=O)Nc2cc([C@@H]3CC[C@H](OC(=O)N4CCC4(C)C)C3)[nH]n2)cn1
Solution: 0.12

Exercise: Next record, please: COc1ccc(CC(=O)Nc2cc([C@H]3CC[C@@H](OC(=O)N4C[C@@H](C#N)[C@@H]4C)C3)[nH]n2)cn1 (single isomer, unassigned)
Solution: 0.17
